Source: patent US9527828B2

# fold induction at 1 µg/mL values compiled below
Test system: CD34^+CD38^− cells
Assay: Expansion of CD34+CD38− cells from human cord blood-derived CD34+ cells (Example 2)
Type: cell-based
Details: Homo sapiens, 168 h, 1 μg/mL compound, 50 ng/mL SCF, StemSpan SFEM, 7 days; based on number of CD34+CD38− cells in the absence of compound; read-out: Expansion efficiency

{"compound-string": "C/C(=N\\NC(=O)c1ccc(C(=O)NCc2cccs2)s1)c1csc(-c2ccc(Cl)cc2)c1", "fold induction at 1 µg/mL": "≥ 10"}
{"compound-string": "C/C(=N\\NC(=O)c1ccc(C(=O)NCc2ccccn2)s1)c1csc(-c2ccc(Cl)c(Cl)c2)c1O", "fold induction at 1 µg/mL": "5 to 10"}
{"compound-string": "C/C(=N\\NC(=O)c1ccc(C(=O)NCc2ccccc2C(N)=O)s1)c1csc(-c2ccc(Cl)cc2)c1O", "fold induction at 1 µg/mL": "≥ 10"}
{"compound-string": "C/C(=N\\NC(=O)c1ccc(C(=O)NCc2cncn2C)s1)c1csc(-c2ccc(C(F)(F)F)cc2)c1O", "fold induction at 1 µg/mL": "5 to 10"}
{"compound-string": "C/C(=N\\NC(=O)c1ccc(C(=O)NCc2cnc(C)cn2)s1)c1csc(-c2ccc(OC(F)(F)F)cc2)c1O", "fold induction at 1 µg/mL": "≥ 10"}
{"compound-string": "COc1ccc(-c2scc(/C(C)=N/NC(=O)c3ccc(C(=O)NCc4ccccc4C(N)=O)s3)c2O)cc1", "fold induction at 1 µg/mL": "5 to 10"}
{"compound-string": "C/C(=N\\NC(=O)c1ccc(C(=O)NC(C)C)s1)c1csc(-c2cccc(Cl)c2)c1O", "fold induction at 1 µg/mL": "5 to 10"}

----------
System: CD34^+CD38^− cells
Assay: Expansion of CD34+CD38− cells from human cord blood-derived CD34+ cells (Example 2)
Format: cell-based
Conditions: Homo sapiens, 168 h, 1 μg/mL compound, 50 ng/mL SCF, StemSpan SFEM, 7 days; based on number of CD34+CD38− cells in the absence of compound; read-out: Expansion efficiency

{"compound": "C/C(=N\\NC(=O)c1ccc(C(=O)NCc2cc(Cl)no2)s1)c1csc(-c2ccc(Cl)c(Cl)c2)c1O", "fold induction at 1 µg/mL": "5 to 10"}
{"compound": "CCCNC(=O)c1ccc(C(=O)N/N=C(\\C)c2csc(-c3ccc(Cl)c(Cl)c3)c2O)s1", "fold induction at 1 µg/mL": "3 to 5"}
{"compound": "CNC(=O)c1ccc(CNC(=O)c2ccc(C(=O)N/N=C(\\C)c3csc(-c4ccc(Cl)c(Cl)c4)c3O)s2)cc1", "fold induction at 1 µg/mL": "≥ 10"}
{"compound": "C/C(=N\\NC(=O)c1ccc(C(=O)NCc2c(C)nn(C)c2C)s1)c1csc(-c2ccc(Cl)c(Cl)c2)c1O", "fold induction at 1 µg/mL": "5 to 10"}
{"compound": "C/C(=N\\NC(=O)c1ccc(C(=O)NCc2ccccc2C(N)=O)s1)c1csc(-c2ccc(Cl)c(Cl)c2)c1O", "fold induction at 1 µg/mL": "≥ 10"}
{"compound": "C/C(=N\\NC(=O)c1ccc(C(=O)NC(C)C)s1)c1csc(-c2ccc(Cl)cc2)c1O", "fold induction at 1 µg/mL": "5 to 10"}
{"compound": "C/C(=N\\NC(=O)c1ccc(C(=O)NCc2cc[n+]([O-])cc2)s1)c1csc(-c2ccc(Cl)c(Cl)c2)c1O", "fold induction at 1 µg/mL": "≥ 10"}
{"compound": "C/C(=N\\NC(=O)c1ccc(C(=O)NCc2ccc(C#N)cc2)s1)c1csc(-c2ccc(Cl)c(Cl)c2)c1O", "fold induction at 1 µg/mL": "≥ 10"}
{"compound": "C/C(=N\\NC(=O)c1ccc(C(=O)NCc2cc(C)on2)s1)c1csc(-c2ccc(OC(F)(F)F)cc2)c1O", "fold induction at 1 µg/mL": "≥ 10"}
{"compound": "CCCCCN(C)C(=O)c1ccc(C(=O)N/N=C(\\C)c2csc(-c3ccc(Cl)c(Cl)c3)c2O)s1", "fold induction at 1 µg/mL": "5 to 10"}
{"compound": "C/C(=N\\NC(=O)c1ccc(C(=O)NCc2ccc(C(N)=O)cc2)s1)c1csc(-c2ccc(OC(F)(F)F)cc2)c1O", "fold induction at 1 µg/mL": "≥ 10"}
{"compound": "C/C(=N\\NC(=O)c1ccc(C(=O)N(C(C)C)C(C)C)s1)c1csc(-c2ccc(Cl)c(Cl)c2)c1O", "fold induction at 1 µg/mL": "≥ 10"}
{"compound": "COc1cc(CNC(=O)c2ccc(C(=O)N/N=C(\\C)c3csc(-c4ccc(OC(F)(F)F)cc4)c3O)s2)on1", "fold induction at 1 µg/mL": "≥ 10"}
{"compound": "C/C(=N\\NC(=O)c1ccc(C(=O)NC2CCCC2)s1)c1csc(-c2ccc(Cl)c(Cl)c2)c1O", "fold induction at 1 µg/mL": "3 to 5"}
{"compound": "CCN(C)C(=O)c1ccc(C(=O)N/N=C(\\C)c2csc(-c3ccc(Cl)c(Cl)c3)c2O)s1", "fold induction at 1 µg/mL": "3 to 5"}
{"compound": "C/C(=N\\NC(=O)c1ccc(C(=O)NCc2ccc(C(N)=O)cc2)s1)c1csc(-c2ccc(Br)cc2)c1O", "fold induction at 1 µg/mL": "≥ 10"}
{"compound": "C/C(=N\\NC(=O)c1ccc(C(=O)NCc2ccc(S(N)(=O)=O)cc2)s1)c1csc(-c2ccc(Cl)c(Cl)c2)c1O", "fold induction at 1 µg/mL": "5 to 10"}
{"compound": "CNC(=O)c1ccc(C(=O)N/N=C(\\C)c2csc(-c3ccc(Cl)cc3)c2O)s1", "fold induction at 1 µg/mL": "≥ 10"}
{"compound": "C/C(=N\\NC(=O)c1ccc(C(=O)NCCO)s1)c1csc(-c2ccc(Cl)cc2)c1O", "fold induction at 1 µg/mL": "≥ 10"}
{"compound": "C/C(=N\\NC(=O)c1ccc(C(=O)NCc2cccc(C(N)=O)c2)s1)c1csc(-c2ccc(Cl)cc2)c1O", "fold induction at 1 µg/mL": "≥ 10"}
{"compound": "CCN(CC)C(=O)c1ccc(C(=O)N/N=C(\\C)c2csc(-c3ccc(Cl)cc3)c2O)s1", "fold induction at 1 µg/mL": "5 to 10"}
{"compound": "C/C(=N\\NC(=O)c1ccc(C(=O)NC2CCC(O)CC2)s1)c1csc(-c2ccc(Cl)c(Cl)c2)c1O (centres unmarked)", "fold induction at 1 µg/mL": "5 to 10"}
{"compound": "C/C(=N\\NC(=O)c1ccc(C(=O)NCCCCO)s1)c1csc(-c2ccc(Cl)c(Cl)c2)c1O", "fold induction at 1 µg/mL": "5 to 10"}
{"compound": "CCCCCNC(=O)c1ccc(C(=O)N/N=C(\\C)c2csc(-c3ccc(Cl)c(Cl)c3)c2O)s1", "fold induction at 1 µg/mL": "3 to 5"}
{"compound": "C/C(=N\\NC(=O)c1ccc(C(=O)NCc2cc[n+]([O-])cc2)s1)c1csc(-c2ccc(Cl)cc2)c1O", "fold induction at 1 µg/mL": "≥ 10"}
{"compound": "COc1ccc(-c2scc(/C(C)=N/NC(=O)c3ccc(C(=O)NC(C)c4ccc(NC(C)=O)cc4)s3)c2O)cc1 (centres unmarked)", "fold induction at 1 µg/mL": "≥ 10"}
{"compound": "COCCNC(=O)c1ccc(C(=O)N/N=C(\\C)c2csc(-c3ccc(Cl)c(Cl)c3)c2O)s1", "fold induction at 1 µg/mL": "5 to 10"}
{"compound": "C/C(=N\\NC(=O)c1ccc(C(=O)NCc2ccno2)s1)c1csc(-c2ccc(Cl)c(Cl)c2)c1O", "fold induction at 1 µg/mL": "5 to 10"}
{"compound": "COc1cc(CNC(=O)c2ccc(C(=O)N/N=C(\\C)c3csc(-c4ccc(Cl)c(Cl)c4)c3O)s2)on1", "fold induction at 1 µg/mL": "≥ 10"}
